SYSTEM_TESTED: GST-NAP(1-166) (Arabidopsis thaliana, UniProt O49255 1-166)
Sequence: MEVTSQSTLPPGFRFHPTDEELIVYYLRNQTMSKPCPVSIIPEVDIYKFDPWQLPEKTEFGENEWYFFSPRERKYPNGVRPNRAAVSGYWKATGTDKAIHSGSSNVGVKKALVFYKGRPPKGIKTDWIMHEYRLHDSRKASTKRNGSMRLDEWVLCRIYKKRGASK
EXPERIMENT_DESCRIPTION: universal protein binding microarray (PBM); high values mean tight binding
ASSAY_CONDITIONS: protein: recombinant; tags: GST; chain copies: 2; dsDNA, one strand shown
RECORDED_ENDPOINT: binding signal (E-score)
Please respond with the number in E-score and leave the unit unwritten.

Task item: Provide measured binding signal value, entry: "AATTACGC"
Reply: 0.144

Task item: Provide measured binding signal value, entry: "CAAGGAAA"
Reply: 0.0952

Task item: Provide measured binding signal value, entry: "GCAAGTAA"
Reply: 0.056

Task item: Provide measured binding signal value, entry: "TACGGTCA"
Reply: 0.0976

Task item: Provide measured binding signal value, entry: "ACGTAACG"
Reply: 0.411

Task item: Provide measured binding signal value, entry: "AAGTAAGC"
Reply: 0.0599

Task item: Provide measured binding signal value, entry: "ACCCCGCC"
Reply: 0.1

Task item: Provide measured binding signal value, entry: "AAGCAAAC"
Reply: 0.119

Task item: Provide measured binding signal value, entry: "CTACGCAA"
Reply: 0.196

Task item: Provide measured binding signal value, entry: "AAGTAAAG"
Reply: 0.0549

Task item: Provide measured binding signal value, entry: "ATTACGCA"
Reply: 0.282

Task item: Provide measured binding signal value, entry: "ACACGGCA"
Reply: 0.457

Task item: Provide measured binding signal value, entry: "TCACGGCA"
Reply: 0.344

Task item: Provide measured binding signal value, entry: "GTACGTAA"
Reply: 0.419

Task item: Provide measured binding signal value, entry: "ATTGAGTA"
Reply: 0.0897

Task item: Provide measured binding signal value, entry: "ATACGTCA"
Reply: 0.373

Task item: Provide measured binding signal value, entry: "GACCGTCA"
Reply: 0.0503

Task item: Provide measured binding signal value, entry: "AATGCCGT"
Reply: 0.366

Task item: Provide measured binding signal value, entry: "GCGTAATA"
Reply: 0.109

Task item: Provide measured binding signal value, entry: "CAGTTGAC"
Reply: 0.0525

Task item: Provide measured binding signal value, entry: "ACGGCAAC"
Reply: 0.264

Task item: Provide measured binding signal value, entry: "ACGTTGAC"
Reply: 0.0955

Task item: Provide measured binding signal value, entry: "TACACGTA"
Reply: 0.386

Task item: Provide measured binding signal value, entry: "TACGCGAA"
Reply: 0.0761

Task item: Provide measured binding signal value, entry: "ACACGTCT"
Reply: 0.346

Task item: Provide measured binding signal value, entry: "GGGTTGAC"
Reply: 0.0845

Task item: Provide measured binding signal value, entry: "ACACGTAA"
Reply: 0.465

Task item: Provide measured binding signal value, entry: "AAAAGTCA"
Reply: 0.08

Task item: Provide measured binding signal value, entry: "GTCAATAA"
Reply: 0.122

Task item: Provide measured binding signal value, entry: "AGGAAACG"
Reply: 0.183

Task item: Provide measured binding signal value, entry: "CACGTCAG"
Reply: 0.154

Task item: Provide measured binding signal value, entry: "ACGGAACA"
Reply: 0.336

Task item: Provide measured binding signal value, entry: "TATCGTAA"
Reply: 0.0786

Task item: Provide measured binding signal value, entry: "TCACGGAA"
Reply: 0.383

Task item: Provide measured binding signal value, entry: "GGACGCAA"
Reply: 0.303

Task item: Provide measured binding signal value, entry: "CACGACAC"
Reply: 0.343

Task item: Provide measured binding signal value, entry: "GAAAAGTC"
Reply: 0.145

Task item: Provide measured binding signal value, entry: "AGCGTAAA"
Reply: 0.126

Task item: Provide measured binding signal value, entry: "TAACGTGA"
Reply: 0.168

Task item: Provide measured binding signal value, entry: "GTCGCGTA"
Reply: 0.171

Task item: Provide measured binding signal value, entry: "TACGTCAA"
Reply: 0.241

Task item: Provide measured binding signal value, entry: "TTACGCAA"
Reply: 0.442

Task item: Provide measured binding signal value, entry: "AATGTCAA"
Reply: 0.13

Task item: Provide measured binding signal value, entry: "ACGTTTCC"
Reply: 0.354

Task item: Provide measured binding signal value, entry: "CTTGCGTA"
Reply: 0.386

Task item: Provide measured binding signal value, entry: "ACGCTACT"
Reply: 0.236

---

SYSTEM_TESTED: GST-SND1(1-203) (Arabidopsis thaliana, UniProt Q9LPI7 1-203)
Sequence: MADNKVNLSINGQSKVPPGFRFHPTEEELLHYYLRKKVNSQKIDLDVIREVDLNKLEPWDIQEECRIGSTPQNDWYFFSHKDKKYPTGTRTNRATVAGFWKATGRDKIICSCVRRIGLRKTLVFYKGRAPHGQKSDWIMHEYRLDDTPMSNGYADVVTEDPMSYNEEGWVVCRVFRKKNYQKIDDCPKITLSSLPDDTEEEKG
EXPERIMENT_DESCRIPTION: universal protein binding microarray (PBM); high values mean tight binding
ASSAY_CONDITIONS: protein: recombinant; tags: GST; chain copies: 2; dsDNA, one strand shown
Please respond with t when measured binding signal is strictly beneath 0.2 E-score, and with f in all other cases.

Task item: Please indicate whether the reported binding signal of "AATACGCA" is strictly below 0.2 E-score.
Reply: f

Task item: Please indicate whether the reported binding signal of "CGTCAACA" is strictly below 0.2 E-score.
Reply: t

Task item: Please indicate whether the reported binding signal of "AGTCAAAA" is strictly below 0.2 E-score.
Reply: t

Task item: Please indicate whether the reported binding signal of "ACGTTTCC" is strictly below 0.2 E-score.
Reply: f

Task item: Please indicate whether the reported binding signal of "GCACGAAA" is strictly below 0.2 E-score.
Reply: f

Task item: Please indicate whether the reported binding signal of "ACACGACA" is strictly below 0.2 E-score.
Reply: t

Task item: Please indicate whether the reported binding signal of "ATACGCAA" is strictly below 0.2 E-score.
Reply: f

Task item: Please indicate whether the reported binding signal of "AAGTCTAC" is strictly below 0.2 E-score.
Reply: t

Task item: Please indicate whether the reported binding signal of "GCGTATAA" is strictly below 0.2 E-score.
Reply: f

Task item: Please indicate whether the reported binding signal of "TACGCTAA" is strictly below 0.2 E-score.
Reply: f

---

SYSTEM_TESTED: GST-ATAF1 NAC domain (Arabidopsis thaliana, UniProt Q39013 7-158)
Sequence: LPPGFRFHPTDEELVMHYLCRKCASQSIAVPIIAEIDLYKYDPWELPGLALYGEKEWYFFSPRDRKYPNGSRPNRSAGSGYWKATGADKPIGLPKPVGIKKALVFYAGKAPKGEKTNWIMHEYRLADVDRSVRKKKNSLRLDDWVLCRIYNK
EXPERIMENT_DESCRIPTION: universal protein binding microarray (PBM); transcription factors of Arabidopsis thaliana; high values mean tight binding
ASSAY_CONDITIONS: protein: recombinant; tags: GST; chain copies: 2; dsDNA, one strand shown
Binary call on binding signal: fulfilled from 0.2 E-score upward, not fulfilled beneath that.

Task item: Decide: is the reported value of binding signal for "CACGACAC" equal to or greater than 0.2 E-score?
Reply: fulfilled

Task item: Decide: is the reported value of binding signal for "CCAAGCAA" equal to or greater than 0.2 E-score?
Reply: not fulfilled

Task item: Decide: is the reported value of binding signal for "TAAGAAAA" equal to or greater than 0.2 E-score?
Reply: not fulfilled

Task item: Decide: is the reported value of binding signal for "AAAGGAAA" equal to or greater than 0.2 E-score?
Reply: not fulfilled

Task item: Decide: is the reported value of binding signal for "ACGCAACT" equal to or greater than 0.2 E-score?
Reply: fulfilled

Task item: Decide: is the reported value of binding signal for "AACGTGTA" equal to or greater than 0.2 E-score?
Reply: fulfilled

Task item: Decide: is the reported value of binding signal for "GAAGTAAA" equal to or greater than 0.2 E-score?
Reply: fulfilled

Task item: Decide: is the reported value of binding signal for "ATGCCGTA" equal to or greater than 0.2 E-score?
Reply: fulfilled

Task item: Decide: is the reported value of binding signal for "AAAGTCGT" equal to or greater than 0.2 E-score?
Reply: fulfilled

Task item: Decide: is the reported value of binding signal for "AAACGTAA" equal to or greater than 0.2 E-score?
Reply: fulfilled

Task item: Decide: is the reported value of binding signal for "CACGAAAC" equal to or greater than 0.2 E-score?
Reply: fulfilled

Task item: Decide: is the reported value of binding signal for "GCGTGTCA" equal to or greater than 0.2 E-score?
Reply: not fulfilled

Task item: Decide: is the reported value of binding signal for "TGACTTAA" equal to or greater than 0.2 E-score?
Reply: not fulfilled

Task item: Decide: is the reported value of binding signal for "TGGTCAAA" equal to or greater than 0.2 E-score?
Reply: not fulfilled

Task item: Decide: is the reported value of binding signal for "CTAACGTA" equal to or greater than 0.2 E-score?
Reply: fulfilled

Task item: Decide: is the reported value of binding signal for "GTCAACAA" equal to or greater than 0.2 E-score?
Reply: not fulfilled

Task item: Decide: is the reported value of binding signal for "TCGCGTAA" equal to or greater than 0.2 E-score?
Reply: not fulfilled

Task item: Decide: is the reported value of binding signal for "GGAAGCAA" equal to or greater than 0.2 E-score?
Reply: not fulfilled

Task item: Decide: is the reported value of binding signal for "AGGGAAAT" equal to or greater than 0.2 E-score?
Reply: not fulfilled

Task item: Decide: is the reported value of binding signal for "CTCTTGAC" equal to or greater than 0.2 E-score?
Reply: not fulfilled

Task item: Decide: is the reported value of binding signal for "ACGAGAAA" equal to or greater than 0.2 E-score?
Reply: not fulfilled
